Cited source for all entries: ChEMBL document CHEMBL2202954

system: NCI-H460; test: Cytotoxicity against human NCI-H460 cells assessed as cellular growth at 10 uM by SRB assay; type: functional
Parameter threshold = 90%. Response is Fulfilled when Activity meets or exceeds it, else Not fulfilled.

Observe how each entry below is paired with its result.
molecule: CC1(C)CCc2cc(-c3ccn(S(=O)(=O)c4ccc(Cl)cc4)n3)ccc2O1
discrete label: Not fulfilled

molecule: Cc1c(OCC(=O)c2ccccc2)ccc2c1oc(=O)c1ccccc12
discrete label: Fulfilled

molecule: O=C(Nc1ccc2oc(=O)ccc2c1)c1ccc(-c2ccc(Cl)c(Cl)c2)o1
discrete label: Fulfilled

molecule: O=C(Nc1nc2ccc(Cl)cc2s1)c1ccc(Cl)cc1
discrete label: Fulfilled

molecule: COc1ccc(Cl)cc1C(=O)Nc1nc2ccc(Cl)cc2s1
discrete label: Fulfilled

Could you tell me if the measured Activity of `N#Cc1ccc(NC(=O)c2sc3nc4c(cc3c2N)C(=O)CCC4)cc1` reaches 90% or more?
Not fulfilled

* * *

We begin with a simple list: items and their reported Activity.
system: SK-MEL-28; assay: Cytotoxicity against human SK-MEL-28 cells assessed as cellular growth at 10 uM by SRB assay; format: functional
Dear colleague, please return just the value in %, with no unit written.

Look at this compound and give its reported Activity. `Cc1ccc(NC(=O)c2sc3nc4c(cc3c2N)C(=O)CCC4)cc1Cl`
108.49

Next entry: `O=C1N=C(c2ccccc2)S/C1=C\c1ccc2c(c1)OCO2`
106.02

Next entry: `COc1ccc(Cl)cc1C(=O)Nc1nc2ccc(Cl)cc2s1`
105.02

* * *

We begin with a simple list: items and their reported Activity.
system: SK-MEL-2; experiment: Cytotoxicity against human SK-MEL-2 cells assessed as cellular growth at 10 uM by SRB assay; assay type: functional
Dear colleague, please return just the value in %, with no unit written.

molecule: Cc1ccc(S(=O)(=O)NC2=NC(=O)/C(=C\c3ccccc3)S2)cc1
test readout: Activity
numeric value: 117.54

molecule: Clc1cccc(-c2nc(-c3cccs3)no2)c1
test readout: Activity
numeric value: 103.17

molecule: O=S(=O)(Oc1ccc(-c2cnc3ccccc3n2)cc1)c1ccc2ccccc2c1
test readout: Activity
numeric value: 107.17

molecule: CC1(C)CC(=O)c2cc3c(N)c(C(=O)NCc4ccccc4)sc3nc2C1
test readout: Activity
numeric value: 114.95

molecule: CC1(C)CCc2cc(-c3ccn(S(=O)(=O)c4ccc(Cl)cc4)n3)ccc2O1
test readout: Activity
numeric value: 92.25

From here, focus on the item given below.
Look at this molecule and give its reported Activity. `O=c1/c(=C/c2ccccc2Cl)sc2nc(-c3ccccc3)nn12`
100.14

* * *

We begin with a simple list: items and their reported Activity.
test system: SK-MEL-28; assay: Cytotoxicity against human SK-MEL-28 cells assessed as cellular growth at 10 uM by SRB assay; format: functional
Dear colleague, please return just the value in %, with no unit written.

molecule: Cc1ccc(NC(=O)c2sc3nc(-c4cccs4)ccc3c2N)cc1C
Activity [%]: 113.95
--
molecule: Clc1cccc(-c2nc(-c3cccs3)no2)c1
Activity [%]: 111.9
--
molecule: Cc1ccc(S(=O)(=O)NC2=NC(=O)/C(=C\c3ccccc3)S2)cc1
Activity [%]: 114.12
--
molecule: Nc1c(C(=O)Nc2ccccc2F)sc2nc3c(cc12)C(=O)CCC3
Activity [%]: 64.11
--
molecule: Nc1c(C(=O)NCc2ccccc2)sc2nc3c(cc12)C(=O)CCC3
Activity [%]: 118.31
--
molecule: Cc1ccc(S(=O)(=O)Oc2ccc(-c3cnc4ccccc4n3)cc2)cc1
Activity [%]: 113.2
--
molecule: O=C(NCCc1ccc(Cl)cc1)c1[nH]c2ccccc2c1Cl
Activity [%]: 109.77
--
molecule: Cc1cc(C)c(NC(=O)c2sc3nc4c(cc3c2N)C(=O)CC(C)(C)C4)c(C)c1
Activity [%]: 107.04

Give recorded Activity with SK-MEL-28 for the following compound: `CC1(C)CC(=O)c2cc3c(N)c(C(=O)Nc4ccc(F)cc4)sc3nc2C1`
113.65

Next entry: `COc1ccc(NC(=O)c2sc3nc4c(cc3c2N)C(=O)CCC4)cc1`
106.67

Next entry: `c1ccc(-c2nc(-c3cccs3)no2)cc1`
117.87

* * *

We begin with a simple list: items and their reported Activity.
system: SK-MEL-28; assay: Cytotoxicity against human SK-MEL-28 cells assessed as cellular growth at 10 uM by SRB assay; format: functional
Dear colleague, please return just the value in %, with no unit written.

Solved cases below.
molecule: Cc1ccc(CNC(=O)c2[nH]c3ccccc3c2Cl)cc1
numeric value: 113.18
--
molecule: O=c1/c(=C/c2ccc(Cl)cc2Cl)sc2nc(-c3ccccc3)nn12
numeric value: 117.34

Look at this molecule and give its reported Activity. `O=c1/c(=C/c2ccccc2)sc2nc(-c3ccc(Cl)cc3Cl)nn12`
109.52

Next entry: `Nc1c(C(=O)Nc2cccc(Cl)c2)sc2nc3c(cc12)C(=O)CCC3`
51.4

Next entry: `COc1ccc2nc(NC(=O)c3ccc(F)cc3)sc2c1`
110.86

Next entry: `O=c1/c(=C/c2ccccc2Cl)sc2nc(-c3ccccc3)nn12`
109.04

Next entry: `O=C(NCc1cccnc1)c1sc2cc([N+](=O)[O-])ccc2c1Cl`
110.01

* * *

tested on: SN12C; experiment: Cytotoxicity against human SN12C cells assessed as cellular growth at 10 uM by SRB assay; format: functional
test readout: Activity (%)
Dear colleague, please return just the value in %, with no unit written.

molecule: O=C(NCCc1ccccc1)c1[nH]c2ccccc2c1Cl
numeric value: 97.03

molecule: CC1(C)CC(=O)c2cc3c(N)c(C(=O)Nc4ccc(F)cc4)sc3nc2C1
numeric value: 122.37

Give recorded Activity with SN12C for the following compound: `Cc1ccc(C(=O)/C=C2/Nc3ccc(C)cc3OC2=O)cc1`
96.84

Next entry: `Cc1cc(C)c(NC(=O)c2sc3nc4c(cc3c2N)C(=O)CC(C)(C)C4)c(C)c1`
103.6

Next entry: `Cc1c(OCC(=O)c2ccccc2)ccc2c1oc(=O)c1ccccc12`
101.41

Next entry: `O=C(Nc1nc2ccc(Cl)cc2s1)c1ccc(Cl)cc1`
122.51

Next entry: `O=C(Nc1nc2ccc(Cl)cc2s1)c1ccc(Cl)cc1Cl`
113.76

Next entry: `Cc1ccc(NC(=O)c2sc3nc4c(cc3c2N)C(=O)CCC4)c(Br)c1`
94.31

Next entry: `Cc1ccc(C2=N/C(=C\c3ccccc3)C(=O)O2)cc1`
98.61

Next entry: `Nc1c(C(=O)Nc2ccccc2F)sc2nc3c(cc12)C(=O)CCC3`
49.76

Next entry: `Cc1ccc(S(=O)(=O)Oc2ccc(-c3cnc4ccccc4n3)cc2)cc1`
108.92

Next entry: `O=C(NCCc1ccccc1)c1cc2cccc([N+](=O)[O-])c2[nH]1`
94.11

Next entry: `c1ccc(-c2nc(-c3cccs3)no2)cc1`
91.08

Next entry: `O=S(=O)(Oc1ccc(-c2cnc3ccccc3n2)cc1)c1ccc2ccccc2c1`
92.04

Next entry: `O=C(Nc1nc2ccccc2s1)c1ccc(F)cc1`
108.22

Next entry: `Clc1ccc(-c2nc(-c3cccs3)no2)c(Cl)c1`
100.86

* * *

system: HCT-116; experiment: Cytotoxicity against human HCT116 cells assessed as cellular growth at 10 uM by SRB assay; assay type: functional
test readout: Activity (%)
Dear colleague, please return just the value in %, with no unit written.

Solved cases below.
molecule: COc1cc(/C=c2/sc3nc4ccccc4n3c2=O)cc(I)c1O
system tested: HCT-116
numeric value: 98.72

molecule: Clc1ccc(-c2nc(-c3cccs3)no2)cc1
system tested: HCT-116
numeric value: 92.37

molecule: Oc1ccccc1-c1nc(-c2cccs2)no1
system tested: HCT-116
numeric value: 104.63

molecule: Cc1ccc(CNC(=O)c2[nH]c3ccccc3c2Cl)cc1
system tested: HCT-116
numeric value: 107.58

molecule: COc1cccc(C(=O)Nc2nc3ccc(Cl)cc3s2)c1
system tested: HCT-116
numeric value: 92.95

molecule: COc1ccc2[nH]c(C(=O)NCc3ccccc3)cc2c1
system tested: HCT-116
numeric value: 94.88

Look at this molecule and give its reported Activity. `Nc1c(C(=O)Nc2ccc(Cl)c(Cl)c2)sc2nc(-c3cccs3)ccc12`
75.19

Next entry: `O=C(NCCc1ccc(Cl)cc1)c1[nH]c2ccccc2c1Cl`
98.39

Next entry: `Clc1ccc(-c2nc(-c3cccs3)no2)c(Cl)c1`
94.56

Next entry: `O=c1/c(=C/c2ccc(Cl)cc2Cl)sc2nc(-c3ccccc3)nn12`
106.75

Next entry: `Cc1ccc(C2=N/C(=C\c3ccccc3)C(=O)O2)cc1`
114.29

Next entry: `O=c1/c(=C/c2ccccc2Cl)sc2nc(-c3ccccc3)nn12`
72.43
